# System: acetylation of chromatin at H3K18 in HCT-116 cells
# Experimental Protocol: H3K18Ac MSD cellular assay
# Type: cell-based
# Condition Context: Homo sapiens, 2 hr treatment
Property Name: pEC50
Give bare numbers, as −log10 of the molar value.

CC(=O)N1CC(Oc2ccc(NC(=O)C(NC[C@@H](C)c3ccc(C#N)cc3)c3ccccc3)nc2)C1 (single isomer, unassigned) [2 Isomer 1] ... 7.70
CN1CCC(Oc2ccc(NC(=O)C(NCCc3ccc(C#N)cc3)c3ccccc3)nc2)CC1 (single isomer, unassigned) [1 Isomer 1] ... 7.46
CC(=O)N1CC(Oc2ccc(NC(=O)C(NCC(C)c3ccc(C#N)cc3)c3cccc(F)c3)nc2)C1 (single isomer, unassigned) [23 Isomer 1] ... 7.50

// input: 2 compounds below; output: pEC50 for each
1. Cn1cc(COc2ccc(NC(=O)C(NCCc3ccc(Cl)cc3)c3ccccc3)nc2)cn1 (single isomer, unassigned) [8 Isomer 2]
2. CC(=O)N1CC(Oc2ccc(NC(=O)C(NCC(C)c3ccc(C#N)cc3)c3cnn(C)c3)nc2)C1 (single isomer, unassigned) [24 Isomer 1]

1: 7.16; 2: 7.24

====

I'd appreciate it if you could supply pIC50 values for the items below.
# Experimental System: p300 HAT domain (residues 1287-1666) (Homo sapiens)
# Sequence (Q09472 1287-1666): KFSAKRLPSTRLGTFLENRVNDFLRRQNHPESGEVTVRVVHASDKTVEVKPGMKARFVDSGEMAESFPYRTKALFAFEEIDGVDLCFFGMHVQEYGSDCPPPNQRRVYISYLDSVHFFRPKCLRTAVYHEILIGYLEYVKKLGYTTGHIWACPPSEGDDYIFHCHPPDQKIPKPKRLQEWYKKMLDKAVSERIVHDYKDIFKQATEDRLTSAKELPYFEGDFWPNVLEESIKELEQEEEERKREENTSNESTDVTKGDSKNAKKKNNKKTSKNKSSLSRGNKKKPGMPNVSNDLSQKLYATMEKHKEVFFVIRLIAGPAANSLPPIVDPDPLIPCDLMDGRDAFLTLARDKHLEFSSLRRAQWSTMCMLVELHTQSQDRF
Numbers only, as −log10 of the molar value.

Some molecules with known pIC50 results, for comparison:
CC(CNC(C(=O)Nc1ccc(Oc2cnn(C)c2)cn1)c1ccccc1)c1ccc(C#N)cc1 (single isomer, unassigned) [17 Isomer 1] ... 7.47
CN1CC(Oc2ccc(NC(=O)C(NCCc3ccc(Cl)cc3)c3ccccc3)nc2)CCC1=O (single isomer, unassigned) [10 Isomer 3] ... 7.34
N#Cc1ccc(CCNC(C(=O)Nc2ccc(OCCN3CCOC3=O)cn2)c2ccccc2)cc1 (single isomer, unassigned) [19 Isomer 1] ... 7.25
CN1CC(Oc2ccc(NC(=O)C(NCCc3ccc(Cl)cc3)c3ccccc3)nc2)CN(C)C1=O (single isomer, unassigned) [3 Isomer 2] ... 6.93
Cc1cnc(Oc2ccc(NC(=O)C(NCCc3ccc(C#N)cc3)c3ccccc3)nc2)nc1 (single isomer, unassigned) [22 Isomer 2] ... 5.86
CC(=O)N1CCC[C@@H](Oc2ccc(NC(=O)C(NCCc3ccc(C#N)cc3)c3ccccc3)nc2)C1 (single isomer, unassigned) [16 Isomer 1] ... 6.79
CN1CCC(Oc2ccc(NC(=O)C(NCCc3ccc(C#N)cc3)c3ccccc3)nc2)CC1 (single isomer, unassigned) [1 Isomer 1] ... 7.56

Lab note: measured pIC50 of CC(CNC(C(=O)Nc1ccc(OC2CN(C(=O)C3CC3)C2)cn1)c1ccccc1)c1ccc(C#N)cc1 (single isomer, unassigned) [21 Isomer 1] was 7.56

// provenance: patent US20220135538A1
